Molecular target: T1, cell-bound CD73 (human, UniProt P21589 27-549)
T1 sequence (looked up): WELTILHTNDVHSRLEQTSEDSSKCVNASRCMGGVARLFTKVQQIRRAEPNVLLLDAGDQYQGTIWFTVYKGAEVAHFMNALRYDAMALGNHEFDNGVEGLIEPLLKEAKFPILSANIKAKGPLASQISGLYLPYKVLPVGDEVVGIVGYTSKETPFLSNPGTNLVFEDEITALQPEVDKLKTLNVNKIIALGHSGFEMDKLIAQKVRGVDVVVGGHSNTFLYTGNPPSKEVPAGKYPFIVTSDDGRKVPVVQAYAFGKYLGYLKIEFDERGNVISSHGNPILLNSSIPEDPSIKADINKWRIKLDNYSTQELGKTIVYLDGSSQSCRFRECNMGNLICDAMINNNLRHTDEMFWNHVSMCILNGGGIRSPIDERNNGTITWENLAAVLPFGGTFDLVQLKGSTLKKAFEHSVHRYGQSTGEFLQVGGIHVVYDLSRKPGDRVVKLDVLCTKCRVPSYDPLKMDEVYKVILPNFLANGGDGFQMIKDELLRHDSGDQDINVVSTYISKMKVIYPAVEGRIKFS
Assay: cell-based or functional assay
experimentalReadout: CD8 T cell proliferation [% of control], Donor F, 1 nM antibody
Form field: result (number plus unit)

See these solved cases before continuing.
>  <binder>
C1 (antibody, human IgG1, kappa, L234A L235A, V domains shown, Humanized monoclonal antibody; also called anti-CD73 antibody C1) VH: QVQLVQSGAEVKKPGDSVKVSCKASGYTFTTYWMHWVRQAPGQGLEWMGAIYPGFSDTTYSQKFKGKVTMTRDTSTSTVYMKLSSLRSEDTAVYYCARLLDYAMDYWGQGTLVTVSS VL: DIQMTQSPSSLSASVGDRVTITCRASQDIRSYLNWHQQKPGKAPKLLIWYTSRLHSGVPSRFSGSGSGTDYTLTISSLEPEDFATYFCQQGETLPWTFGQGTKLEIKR

>  <result>
84.2%

$$$$
>  <binder>
C4 (antibody, human IgG1, kappa, L234A L235A, V domains shown, Humanized monoclonal antibody; also called C04; inventive anti-CD73 antibody C4) VH: QVQLVQSGAEVKKPGDSVKVSCKASGYTFTTYWMHWVRQAPGQGLEWMGAIYPGLSDTTYNQKFKGKVTMTRDTSTSTVYMKLSSLRSEDTAVYYCARLLDYAMDYWGQGTLVTVSS VL: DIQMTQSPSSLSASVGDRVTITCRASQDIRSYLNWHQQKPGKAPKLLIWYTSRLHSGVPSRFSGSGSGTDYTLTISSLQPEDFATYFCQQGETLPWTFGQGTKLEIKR

>  <result>
92.6%

$$$$

Input line: Given C5 (antibody, human IgG1, kappa, L234A L235A, V domains shown, Humanized monoclonal antibody; also called anti-CD73 antibody C5) VH: QVQLVQSGAEVKKPGDSVKVSCKASGYTFTTYWMHWVRQAPGQGLEWMGAIYPGNSDTTYNQKFKGKVTMTRDTSTSTVYMKLSSLRSEDTAVYYCARLLDYAMDYWGQGTLVTVSS VL: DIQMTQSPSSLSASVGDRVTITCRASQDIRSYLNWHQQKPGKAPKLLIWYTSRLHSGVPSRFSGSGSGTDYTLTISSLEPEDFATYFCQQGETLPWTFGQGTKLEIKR , state its recorded CD8 T cell proliferation [% of control], Donor F, 1 nM antibody.
Output line: 86%
